# Read-out: Caspase-3 (Homo sapiens) (UniProt P42574)
# Sequence (P42574 whole entry, looked up): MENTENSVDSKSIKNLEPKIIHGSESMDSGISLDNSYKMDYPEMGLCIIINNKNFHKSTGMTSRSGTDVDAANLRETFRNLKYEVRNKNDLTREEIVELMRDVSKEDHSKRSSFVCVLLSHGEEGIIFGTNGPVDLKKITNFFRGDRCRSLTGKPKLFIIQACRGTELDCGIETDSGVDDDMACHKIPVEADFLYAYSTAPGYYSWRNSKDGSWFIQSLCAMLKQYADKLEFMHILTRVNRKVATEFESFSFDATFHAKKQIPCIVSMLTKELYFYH
# measurement description: LTEA_HepaRG_CASP3: Life Technologies and Expression Analysis (LTEA) Assay for cysteine-aspartic acid protease (CASP3) using HepaRG (AID 2283477)
# applied conditions: mRNA level, 48 h; actives raise or lower the signal
Active and inactive are the calls of the source. How the source made its calls: active means hit-call score of the fitted dose curve at least 0.9, where 1 is the maximum; inactive means score below 0.9.
// allowed return values: active, inactive

Below, 8 molecules whose answers are already recorded.
[[record]]
molecule = "Cc1cc2c3c(c1)C(c1ccccc1)=N[C@@H](NC(=O)c1ccncc1)C(=O)N3CC2"
class_label = "inactive"

[[record]]
molecule = "c1ccc(-c2ccccc2)cc1"
class_label = "inactive"

[[record]]
molecule = "CCOP(=S)(OCC)SCSC(C)(C)C"
class_label = "inactive"

[[record]]
molecule = "Cc1cc(O)ccc1Cl"
class_label = "inactive"

[[record]]
molecule = "O=NN(c1ccccc1)c1ccccc1"
class_label = "inactive"

[[record]]
molecule = "ClC(Cl)=C(c1ccc(Cl)cc1)c1ccc(Cl)cc1"
class_label = "inactive"

[[record]]
molecule = "CCOCCOC(C)=O"
class_label = "inactive"

[[record]]
molecule = "CCNc1nc(NC(C)C)nc(SC)n1"
class_label = "inactive"


Request: Would you mind telling me which call this test gave "O=C(NC(=O)c1c(F)cccc1F)Nc1cc(Cl)c(OC(F)(F)C(F)F)c(Cl)c1" ?
Result: inactive

Request: Would you mind telling me which call this test gave CC(C)C(=O)OCC(C)(C)C(OC(=O)C(C)C)C(C)C (centres undefined) ?
Result: inactive

Request: Would you mind telling me which call this test gave Clc1ccc(C(c2ccccc2Cl)C(Cl)(Cl)Cl)cc1 (centres undefined) ?
Result: inactive

Request: Would you mind telling me which call this test gave "O=C(NC(=O)c1cc(F)c(F)cc1Cl)Nc1cc(F)ccc1N1CCC(C(=O)O)CC1" ?
Result: inactive

Request: Would you mind telling me which call this test gave "NS(=O)(=O)C(F)(F)C(F)(F)C(F)(F)C(F)(F)C(F)(F)C(F)(F)C(F)(F)C(F)(F)F" ?
Result: active

====

# measurement description: CCTE_Shafer_MEA_dev_per_burst_spike_percent: CCTE's Neural Network Formation Assay for Percent of Spikes in a Burst, Shafer Lab (AID 2284032)
Active and inactive are the calls of the source. The calls were made as follows: active = hit-call score of the fitted dose curve at least 0.9, where 1 is the maximum; inactive = score below 0.9.
// allowed return values: 1.0 (active), 0.0 (inactive)

[[record]]
compound = "O=C(O)C(F)(F)C(F)(F)C(F)(F)C(F)(F)C(F)(F)C(F)(F)C(F)(F)C(F)(F)F"
class_label = 0.0

[[record]]
compound = "c1cc2ccc3cccc4ccc(c1)c2c34"
class_label = 0.0

[[record]]
compound = "C=CC(N)=O"
class_label = 0.0


Request: Would you mind telling me which call this test gave "ClC(Cl)=C(c1ccc(Cl)cc1)c1ccc(Cl)cc1" ?
Result: 1.0

Request: Would you mind telling me which call this test gave "CCC(C)(c1ccc(O)cc1)c1ccc(O)cc1" ?
Result: 0.0

Request: Would you mind telling me which call this test gave "ClC1=C(Cl)[C@]2(Cl)[C@@H]3[C@H]4C[C@H]([C@@H]5O[C@H]45)[C@@H]3[C@@]1(Cl)C2(Cl)Cl" ?
Result: 0.0

Request: Would you mind telling me which call this test gave "ClC1=C(Cl)[C@]2(Cl)[C@@H]3[C@@H](Cl)[C@H]4O[C@H]4[C@@H]3C1(Cl)C2(Cl)Cl" ?
Result: 1.0

Request: Would you mind telling me which call this test gave "O=S(=O)(O)C(F)(F)C(F)(F)C(F)(F)C(F)(F)F" ?
Result: 0.0

Request: Would you mind telling me which call this test gave Clc1ccc(C(c2ccccc2Cl)C(Cl)(Cl)Cl)cc1 (centres undefined) ?
Result: 1.0

====

# Read-out: Epidermal growth factor receptor (EGFR), EGFR (gene 1956)
# measurement description: BSK_hDFCGF_EGFR: BioMAP Diversity Plus: hDFCGF Assay for Epidermal growth factor receptor (EGFR) Biomarker Activity (AID 2283057)
# applied conditions: primary human foreskin fibroblasts; actives raise or lower the signal
Active and inactive are the calls of the source. The calls were made as follows: active = hit-call score of the fitted dose curve at least 0.9, where 1 is the maximum; inactive = score below 0.9.
// allowed return values: label 1 for active, label 0 for inactive

[[record]]
compound = "Nn1cnnc1"
class_label = "label 0"


Request: Would you mind telling me which call this test gave "CCC(C)(CC)c1cc(NC(=O)c2c(OC)cccc2OC)on1" ?
Result: label 0

Request: Would you mind telling me which call this test gave "CC#Cc1cc(C)nc(Nc2ccccc2)n1" ?
Result: label 0

Request: Would you mind telling me which call this test gave "COS(=O)(=O)OC" ?
Result: label 0

Request: Would you mind telling me which call this test gave "Cc1ccccc1[N+](=O)[O-]" ?
Result: label 0

Request: Would you mind telling me which call this test gave "O=C(NC(=O)c1c(F)cccc1F)Nc1cc(Cl)c(OC(F)(F)C(F)F)c(Cl)c1" ?
Result: label 0

Request: Would you mind telling me which call this test gave "CCCCCCOC(=O)c1ccccc1C(=O)OCCCCCC" ?
Result: label 0

Request: Would you mind telling me which call this test gave "ClC1=C(Cl)[C@]2(Cl)[C@@H]3[C@H]4C[C@H]([C@@H]5O[C@H]45)[C@@H]3[C@@]1(Cl)C2(Cl)Cl" ?
Result: label 0

Request: Would you mind telling me which call this test gave "COc1ccc(O)c(C(C)(C)C)c1" ?
Result: label 0

Request: Would you mind telling me which call this test gave "Cc1cccc(C)c1N" ?
Result: label 0

Request: Would you mind telling me which call this test gave CCC(C)c1cc([N+](=O)[O-])cc([N+](=O)[O-])c1O (configuration not stated) ?
Result: label 0

Request: Would you mind telling me which call this test gave "Clc1ccc(C(Cl)(Cl)Cl)cc1" ?
Result: label 0

====

# Read-out: Transforming growth factor beta 1 (TGFb1), TGFB1 (gene 7040)
# measurement description: BSK_BE3C_TGFb1: BioMAP Diversity Plus: BE3C Assay for Transforming growth factor beta 1 (TGFb1) Biomarker Activity (AID 2283036)
# applied conditions: primary human bronchial epithelial cells; actives raise or lower the signal
Calls of active or inactive are those of the source. The calls were made as follows: active = hit-call score of the fitted dose curve at least 0.9, where 1 is the maximum; inactive = score below 0.9.
// allowed return values: active, inactive

[[record]]
compound = "CCOCCOC(C)=O"
class_label = "inactive"

[[record]]
compound = "O=C(N[C@H]1CN2CCC1CC2)c1cc2ccoc2cn1"
class_label = "inactive"

[[record]]
compound = "CC1=C2C[C@H]3[C@@H](CC=C4C[C@@H](O)CC[C@@]43C)[C@@H]2CC[C@]12O[C@@H]1C[C@H](C)CN[C@H]1[C@H]2C"
class_label = "inactive"

[[record]]
compound = "C=CC(=O)NCNC(=O)C=C"
class_label = "inactive"

[[record]]
compound = "CC#Cc1cc(C)nc(Nc2ccccc2)n1"
class_label = "inactive"


Request: Would you mind telling me which call this test gave "Oc1ccc(Cl)cc1Cl" ?
Result: inactive

Request: Would you mind telling me which call this test gave "O=NN(c1ccccc1)c1ccccc1" ?
Result: inactive

Request: Would you mind telling me which call this test gave "CC(C)(O)C(=O)Nc1ccc([N+](=O)[O-])c(C(F)(F)F)c1" ?
Result: inactive

Request: Would you mind telling me which call this test gave "O=C(O)C(F)(F)C(F)(F)C(F)(F)C(F)(F)C(F)(F)C(F)(F)C(F)(F)C(F)(F)C(F)(F)F" ?
Result: active

Request: Would you mind telling me which call this test gave "Clc1ccc(Cl)cc1" ?
Result: inactive

Request: Would you mind telling me which call this test gave "O=C(O)C(F)(F)C(F)(F)C(F)(F)C(F)(F)C(F)(F)C(F)(F)C(F)(F)C(F)(F)F" ?
Result: active

Request: Would you mind telling me which call this test gave "Clc1ccc(C(Cl)(Cl)Cl)cc1" ?
Result: inactive

Request: Would you mind telling me which call this test gave "COS(=O)(=O)OC" ?
Result: inactive

Request: Would you mind telling me which call this test gave "Cc1cccc(C)c1N" ?
Result: inactive

Request: Would you mind telling me which call this test gave "Sc1ccccc1" ?
Result: inactive

Request: Would you mind telling me which call this test gave CC(C)C(=O)OCC(C)(C)C(OC(=O)C(C)C)C(C)C (stereo unspecified) ?
Result: inactive

====

# experimental target: Estrogen receptor (Homo sapiens) + Estrogen receptor beta (Homo sapiens) (UniProt P03372+Q92731)
# Sequence (P03372 whole entry, looked up, the tested form may be a part): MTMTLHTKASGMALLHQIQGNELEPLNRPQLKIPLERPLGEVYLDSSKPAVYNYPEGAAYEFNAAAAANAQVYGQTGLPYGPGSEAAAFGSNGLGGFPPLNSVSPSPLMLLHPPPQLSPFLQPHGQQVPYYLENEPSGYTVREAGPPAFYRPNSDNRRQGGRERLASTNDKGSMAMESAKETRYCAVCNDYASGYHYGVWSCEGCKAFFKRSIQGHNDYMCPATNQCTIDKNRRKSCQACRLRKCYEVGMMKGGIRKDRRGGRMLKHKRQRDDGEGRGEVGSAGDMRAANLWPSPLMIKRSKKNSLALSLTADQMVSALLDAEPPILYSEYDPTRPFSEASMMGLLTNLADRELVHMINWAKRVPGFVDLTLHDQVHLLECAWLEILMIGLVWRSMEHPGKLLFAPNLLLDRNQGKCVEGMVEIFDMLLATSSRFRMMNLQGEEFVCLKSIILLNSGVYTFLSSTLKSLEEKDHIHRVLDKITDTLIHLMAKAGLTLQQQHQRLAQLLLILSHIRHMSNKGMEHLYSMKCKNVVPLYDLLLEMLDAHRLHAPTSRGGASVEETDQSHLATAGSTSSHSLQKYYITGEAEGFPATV
# Sequence (Q92731 whole entry, looked up, the tested form may be a part): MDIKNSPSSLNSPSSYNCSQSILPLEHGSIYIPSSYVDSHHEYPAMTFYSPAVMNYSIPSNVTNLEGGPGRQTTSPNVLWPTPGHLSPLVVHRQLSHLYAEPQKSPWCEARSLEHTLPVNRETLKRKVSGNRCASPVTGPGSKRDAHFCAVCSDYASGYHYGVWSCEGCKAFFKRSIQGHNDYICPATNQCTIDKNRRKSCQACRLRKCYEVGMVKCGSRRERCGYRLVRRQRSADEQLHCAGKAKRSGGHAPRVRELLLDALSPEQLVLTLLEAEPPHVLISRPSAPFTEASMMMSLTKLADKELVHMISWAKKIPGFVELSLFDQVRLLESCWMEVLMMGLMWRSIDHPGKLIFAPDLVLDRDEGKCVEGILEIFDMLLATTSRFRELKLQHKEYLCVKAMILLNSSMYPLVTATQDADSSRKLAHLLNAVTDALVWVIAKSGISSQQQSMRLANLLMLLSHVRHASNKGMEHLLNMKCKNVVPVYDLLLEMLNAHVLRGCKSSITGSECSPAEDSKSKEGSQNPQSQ
# measurement description: OT_ER_ERaERb_1440: Odyssey Thera (OT) 24-hour HEK293T Protein-Complementation Assay for Estrogen Receptor-alpha/-beta Homodimer (AID 2283356);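 further: heteromer of ER alpha and ER beta binding domains; hits raise reporter fluorescence and both agonists and antagonists give an increase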
Records with an inconclusive call do not appear. Activity calls are given as the source filed them. Rule for the calls: active = hit-call score of the fitted dose curve at least 0.9, where 1 is the maximum; inconclusive = response in the unintended direction; inactive = score below 0.9.
// allowed return values: active, inactive

Request: Would you mind telling me which call this test gave "CC(C)(O)C(=O)Nc1ccc([N+](=O)[O-])c(C(F)(F)F)c1" ?
Result: inactive

====

# measurement description: BSK_SAg_PBMCCytotoxicity: PBMC Cytotoxicity Assessment in the BioMAP Diversity Plus: SAg Assay (AID 2283093);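 further: PBMC viability measured as Alamar Blue reduction fluorescence at 546/580 nm; fitted both ways against DMSO so a hit may be loss or gain of signal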;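 on AC50: PBMC superantigen activated with SEB plus TSST-1 one hour after compound addition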
# applied conditions: primary human HUVEC with PBMC
Calls of active or inactive are those of the source. How the source made its calls: active means hit-call score of the fitted dose curve at least 0.9, where 1 is the maximum; inactive means score below 0.9.
parameter: AC50

[[record]]
compound = "CC(c1ccc(O)cc1)(c1ccc(O)cc1)c1ccc(O)cc1"
parameter = "AC50"
experimental_value = "inactive"

[[record]]
compound = "Cc1cccc(C)c1N"
parameter = "AC50"
experimental_value = "inactive"

[[record]]
compound = "CCNc1nc(NC(C)C)nc(SC)n1"
parameter = "AC50"
experimental_value = "inactive"

[[record]]
compound = "CC(C)(c1ccccc1)c1ccc(O)cc1"
parameter = "AC50"
experimental_value = "31.5 µM (active)"

[[record]]
compound = "Cc1cc(-c2ccc(N)c(C)c2)ccc1N"
parameter = "AC50"
experimental_value = "inactive"


Request: What does the record list as AC50 for "N#Cc1ccc(N(CC(N)=O)CC(F)(F)F)cc1C(F)(F)F" ?
Result: inactive

Request: What does the record list as AC50 for "Cc1cc(O)ccc1Cl" ?
Result: inactive

Request: What does the record list as AC50 for "CCC(=O)O[C@H]1CC[C@H]2[C@@H]3CCC4=CC(=O)CC[C@]4(C)[C@H]3CC[C@]12C" ?
Result: 37.9 µM (active)

Request: What does the record list as AC50 for "CN(C)c1nc(=O)n(C2CCCCC2)c(=O)n1C" ?
Result: inactive

Request: What does the record list as AC50 for "CCCCCCCCCc1ccc(O)cc1" ?
Result: 16.2 µM (active)

Request: What does the record list as AC50 for "CCC(C)(CC)c1cc(NC(=O)c2c(OC)cccc2OC)on1" ?
Result: inactive

Request: What does the record list as AC50 for "C=CC(N)=O" ?
Result: inactive

Request: What does the record list as AC50 for "Cc1ccc(O)c(C)c1" ?
Result: inactive

Request: What does the record list as AC50 for C1CC2OC2CC1C1CO1 (centres undefined) ?
Result: inactive
